Parameter measured: melting point

Cc1ccc(-c2cc(-c3cccc(Br)c3)nc(SCc3ccccc3F)n2)cc1 100 to 104 °C
Fc1cccc(CSc2nc(-c3ccc(Br)cc3)cc(-c3cccc(Br)c3)n2)c1 94 to 96 °C
Fc1ccccc1CSc1nc(-c2ccc(Br)cc2)cc(-c2ccc(Br)cc2)n1 149 to 150 °C

Please supply melting point for each of the following items, keeping them in order.
1. Cc1ccc(-c2cc(-c3cccc(Br)c3)nc(SCc3ccccc3Cl)n2)cc1
2. Cc1ccc(-c2cc(-c3ccc(Br)cc3)nc(SCc3ccccc3F)n2)cc1

1. 107 to 110 °C
2. 124 to 127 °C

----------
So I've got a bunch of molecules here, and I need their melting point values.

Worked set:
Cc1ccc(-c2cc(-c3ccc(Br)cc3)nc(SCc3ccccc3)n2)cc1 129 to 130 °C
Cc1ccc(-c2cc(-c3ccc(Br)cc3)nc(SCc3ccc(F)cc3)n2)cc1 115 to 124 °C
Cc1ccc(-c2cc(-c3ccc(Br)cc3)nc(SCc3ccccc3Br)n2)cc1 123 to 126 °C
Clc1ccccc1CSc1nc(-c2ccc(Br)cc2)cc(-c2ccc(Br)cc2)n1 147 to 148 °C
Clc1ccc(CSc2nc(-c3ccc(Br)cc3)cc(-c3ccc(Br)cc3)n2)cc1 176 to 178 °C

# per-item lookup of melting point; items listed below
1. Cc1ccc(-c2cc(-c3cccc(Br)c3)nc(SCc3ccc(Br)cc3)n2)cc1
2. Cc1ccc(-c2cc(-c3ccc(Br)cc3)nc(SCc3cccc(F)c3)n2)cc1

1: 135 to 138 °C; 2: 106 to 109 °C

// melting point lookup, molecule = Clc1ccccc1CSc1nc(-c2ccc(Br)cc2)cc(-c2cccc(Br)c2)n1 , result: 129 to 132 °C
